test: in vitro; conditions: human, hela cells, % viability
measured.endpoint: viability at 28.5 h, 10 µM

Any idea what viability at 28.5 h, 10 µM was measured for Cc1nc(C)c(C(=O)Nc2ccc3c(c2)CN(Cc2ccccc2)C3)o1 ? 91.2%

And what about the compound Cc1ccc(NS(=O)(=O)c2cc3c(OC4CCNCC4)nccc3s2)cc1 [CBK046309C] ? 96%

Input Cc1nc(-c2ccc(N3CC(C(N)=O)CCC3C)nc2)[nH]c(=O)c1C (stereo not drawn) 83.9%

# iterate: COc1cc(OC)c(CN(C)CCN(C)C)cc1Br 88.6%

Also Cn1c(N2CCOCC2)nc2cc(C(=O)NCCn3cccn3)ccc21 ? 87.5%

Field entry: COc1cccc(C(=O)N2CCC[C@@H](N)[C@@H]2c2ccccc2F)c1 88.1%

Also COc1cnc(-c2cnn(C)c2)c(NC(=O)c2ccco2)n1 , if possible. 103%

Let us now turn to COc1ccc(-c2csc(Nc3ccc(N)cc3)n2)cc1OC 83.4%

Proceed to COC(=O)C(C)(C)C1c2cc(Br)ccc2OC(=O)C1C(=O)c1ccccc1 (stereo not drawn) 102%

====

So I've got a bunch of compounds here, and I need their viability at 28.5 h, 10 µM values.
assay: in vitro; conditions: human, hela cells, % viability
The reply should contain only the number, in %.

Field request: viability at 28.5 h, 10 µM | item: CCN(CC)C(=O)Cn1nc(C)n2c(cc3sccc32)c1=O 88.7

Follow-up entry: COc1ccc2sc(N(Cc3cccnc3)C(=O)C3COc4ccccc4O3)nc2c1 (stereo not drawn) 107

Okay, and c1ccc2c(CCN3CCC(Oc4nccnc4OC4CCCCC4)CC3)c[nH]c2c1 [CBK082877T] ? 86.2

Same lookup for CCC(O)c1nc(CCSC)nn1-c1cc(=O)n(C)c2ccccc12 (stereo not drawn) , please. 90.5

Item: CC(=O)Nc1cccc(Oc2nccnc2-c2cnn(Cc3ccccc3)c2)c1 101

Now try CC1(C(=O)O)CCCC2(C)c3cc(O)ccc3CCC12 (stereo not drawn) . 97.4

What about this compound? COc1ccccc1CNCCc1ccc(S(N)(=O)=O)cc1 [CBK269852C] 99.7

What about COc1cccc(N(CC(=O)Nc2ccccc2Cl)S(=O)(=O)c2ccc(C)cc2)c1 ? 93.4

Same question, CN1C(=O)C(CC(=O)NCCCc2ccc(F)cc2)c2ccccc21 (stereo not drawn) this time 106

Consider next the compound COc1ccc(C(=O)Nc2cc(C)nn2-c2nc3ccccc3s2)cc1 in the same way. 89.8

Param item: Cc1cc(C(=O)Nc2cccc(S(=O)(=O)N3CCOCC3)c2)sc1-c1ccccc1 102

Input Cc1nc2ccc(C(=O)NC3CCCOC3)cc2s1 (stereo not drawn) 82.8

Now consider Cn1c(=O)n(C)c2cc(S(=O)(=O)NCCOc3ccc(C(=O)O)cc3)ccc21 . 94.9

Same lookup for Cc1nc(C(F)(F)F)ccc1COC(=O)N1CCOCC1 , please. 85.9

# iterate: OCCCNc1nccnc1-c1ccco1 99.2

Likewise for CCC(=O)N1CC[C@H]2NC(=O)c3ccccc3OCC/C=C/C[C@H]2C1 ? 91.3

Field entry: Cc1ccc(C(=O)NCCC(=O)Nc2ccccn2)cc1NC(=O)c1ccco1 92.2

Proceed to O=C(Cn1ccc2ccnc(-c3cccs3)c21)N1CCC(O)CC1 93.1

Cc1ccc(C2(CN3CCN(Cc4cnn(C)c4)CC3)CC2)cc1 ? 96.3

Can you check CC(C)(C)c1cc(NC(=O)c2csc3c(C(F)(F)F)cc(N4CCN(Cc5ccccc5)CC4)nc23)no1 next? 108

Try this compound too: Cc1ccncc1C(=O)N1CCc2ccccc21 109

Would you mind doing O=C(COc1ccccc1)Nc1ccccc1N1CCNCC1 [CBK028279T] as well? 108

Query CSc1nsc(SCC(=O)c2cc3ccccc3oc2=O)n1 next 105

Queued: CC(C)(C)Nc1c(C2CCCN(C(=O)C3CC3)C2)nc2ccccn12 (stereo not drawn) 105

Now the same for CCOCC1CN(c2cc(CO)c(F)cn2)CCO1 (stereo not drawn) 92

Subsequent entry: O=C(COc1ccc(F)cc1)N1CCCC1c1cccc(Cc2ccccc2)n1 (stereo not drawn) 105

Repeat for the following compound: O/N=C1\CC2(CCCCC2)c2ccccc21 83

Again, but for O=C(Cc1ccc(F)cc1)N1C2CCC1CC(O)(c1ccco1)C2 (stereo not drawn) 86.4

Again, but for CC(C)S(=O)(=O)n1ccn(-c2cccc(C(F)(F)F)c2)c1=O 88

Would you kindly repeat that for COc1cc(Nc2cccc(-c3ccc4ccccc4c3)n2)cc(OC)c1OC ? 97.9

Try this compound too: CN(C)CCN(Cc1ccccc1)Cc1ccc(C(F)(F)F)cc1 120

Follow-up item: CCc1ccc(-c2cnccc2-n2ccnc2)cc1 93

Now this one: O=[N+]([O-])c1ccc(N2CCN(S(=O)(=O)c3ccc4ccccc4c3)CC2)cc1NC1CC1 111

Same for Cc1ccc(C(=O)NNC(=O)c2ccc([N+](=O)[O-])cc2)cc1 89.5

Input COc1c(Cl)cc(Cl)cc1CNCc1cccnc1 [CBK270142C] 94.2

Same question for NC(=O)c1cccc(-n2cc(-c3ccsc3)nn2)c1 please. 86.4

Quick one: COc1ncc(-c2nccnc2OC2CCCCC2)c(OC)n1 90.8

What do we get for CC(C)c1ccc(-n2ncc3c(=O)[nH]cnc32)cc1 ? 70.7

Same for COCCn1cnnc1CN(C)C(=O)NC(C)c1nc2ccccc2[nH]1 (stereo not drawn) 99.6

meta.source: paper PMC12040169
